Value source: patent US20250276964A1

tested system: WIZ (Homo sapiens, UniProt O95785+Q96SW2)
Construct: expressed in transfected cells
Sequence (O95785 whole entry): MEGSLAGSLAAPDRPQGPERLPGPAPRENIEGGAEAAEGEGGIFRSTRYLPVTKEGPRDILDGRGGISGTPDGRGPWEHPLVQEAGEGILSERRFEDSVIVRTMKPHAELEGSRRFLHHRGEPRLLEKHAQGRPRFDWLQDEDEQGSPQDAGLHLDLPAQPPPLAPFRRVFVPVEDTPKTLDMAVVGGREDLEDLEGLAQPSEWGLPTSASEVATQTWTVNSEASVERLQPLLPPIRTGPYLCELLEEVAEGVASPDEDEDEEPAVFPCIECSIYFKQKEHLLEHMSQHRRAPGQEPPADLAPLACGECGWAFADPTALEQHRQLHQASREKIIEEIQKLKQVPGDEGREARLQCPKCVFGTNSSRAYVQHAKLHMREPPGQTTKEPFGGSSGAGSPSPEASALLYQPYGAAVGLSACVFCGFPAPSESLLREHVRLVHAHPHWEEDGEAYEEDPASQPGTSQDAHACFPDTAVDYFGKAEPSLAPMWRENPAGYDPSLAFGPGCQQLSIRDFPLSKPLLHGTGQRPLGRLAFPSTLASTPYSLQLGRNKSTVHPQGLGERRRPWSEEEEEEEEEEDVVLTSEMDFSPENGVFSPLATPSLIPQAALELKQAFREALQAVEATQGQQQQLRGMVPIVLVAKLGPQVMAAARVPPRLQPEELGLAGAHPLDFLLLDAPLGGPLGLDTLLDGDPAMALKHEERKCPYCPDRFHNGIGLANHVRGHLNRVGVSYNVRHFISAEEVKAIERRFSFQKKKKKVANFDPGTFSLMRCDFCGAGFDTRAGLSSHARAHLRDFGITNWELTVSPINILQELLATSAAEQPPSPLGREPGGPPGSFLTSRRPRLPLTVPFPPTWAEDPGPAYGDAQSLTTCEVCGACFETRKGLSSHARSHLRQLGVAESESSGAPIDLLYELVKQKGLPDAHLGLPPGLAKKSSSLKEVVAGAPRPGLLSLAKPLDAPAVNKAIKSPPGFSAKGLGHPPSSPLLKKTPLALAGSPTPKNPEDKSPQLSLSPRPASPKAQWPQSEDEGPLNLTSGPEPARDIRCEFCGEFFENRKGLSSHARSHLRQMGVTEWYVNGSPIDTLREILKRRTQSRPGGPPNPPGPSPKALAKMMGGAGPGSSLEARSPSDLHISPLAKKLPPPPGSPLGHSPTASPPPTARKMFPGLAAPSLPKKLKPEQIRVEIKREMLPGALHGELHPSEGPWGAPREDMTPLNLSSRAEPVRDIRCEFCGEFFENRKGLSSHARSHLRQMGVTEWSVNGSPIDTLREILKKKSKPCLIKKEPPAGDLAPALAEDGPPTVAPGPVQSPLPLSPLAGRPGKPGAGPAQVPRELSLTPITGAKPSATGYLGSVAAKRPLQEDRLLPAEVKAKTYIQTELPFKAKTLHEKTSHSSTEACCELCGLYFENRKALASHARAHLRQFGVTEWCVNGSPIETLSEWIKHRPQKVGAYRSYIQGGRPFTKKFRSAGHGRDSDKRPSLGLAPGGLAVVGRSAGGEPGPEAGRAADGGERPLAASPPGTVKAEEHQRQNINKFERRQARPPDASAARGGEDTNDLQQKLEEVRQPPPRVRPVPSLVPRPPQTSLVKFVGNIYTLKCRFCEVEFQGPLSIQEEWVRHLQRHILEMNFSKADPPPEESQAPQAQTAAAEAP
Sequence (Q96SW2 whole entry): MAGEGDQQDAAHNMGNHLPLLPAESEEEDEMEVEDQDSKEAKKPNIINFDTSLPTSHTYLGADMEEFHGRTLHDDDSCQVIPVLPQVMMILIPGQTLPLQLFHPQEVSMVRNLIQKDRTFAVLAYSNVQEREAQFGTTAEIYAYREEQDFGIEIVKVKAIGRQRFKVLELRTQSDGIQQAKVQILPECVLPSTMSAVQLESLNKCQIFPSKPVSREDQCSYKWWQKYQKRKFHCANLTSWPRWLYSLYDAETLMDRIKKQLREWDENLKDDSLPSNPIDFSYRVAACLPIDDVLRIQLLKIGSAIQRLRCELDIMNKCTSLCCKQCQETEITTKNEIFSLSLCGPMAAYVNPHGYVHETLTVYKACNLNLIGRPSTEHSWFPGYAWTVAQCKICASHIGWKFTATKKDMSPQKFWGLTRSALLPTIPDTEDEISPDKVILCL
Sequence (Q16531 whole entry partner): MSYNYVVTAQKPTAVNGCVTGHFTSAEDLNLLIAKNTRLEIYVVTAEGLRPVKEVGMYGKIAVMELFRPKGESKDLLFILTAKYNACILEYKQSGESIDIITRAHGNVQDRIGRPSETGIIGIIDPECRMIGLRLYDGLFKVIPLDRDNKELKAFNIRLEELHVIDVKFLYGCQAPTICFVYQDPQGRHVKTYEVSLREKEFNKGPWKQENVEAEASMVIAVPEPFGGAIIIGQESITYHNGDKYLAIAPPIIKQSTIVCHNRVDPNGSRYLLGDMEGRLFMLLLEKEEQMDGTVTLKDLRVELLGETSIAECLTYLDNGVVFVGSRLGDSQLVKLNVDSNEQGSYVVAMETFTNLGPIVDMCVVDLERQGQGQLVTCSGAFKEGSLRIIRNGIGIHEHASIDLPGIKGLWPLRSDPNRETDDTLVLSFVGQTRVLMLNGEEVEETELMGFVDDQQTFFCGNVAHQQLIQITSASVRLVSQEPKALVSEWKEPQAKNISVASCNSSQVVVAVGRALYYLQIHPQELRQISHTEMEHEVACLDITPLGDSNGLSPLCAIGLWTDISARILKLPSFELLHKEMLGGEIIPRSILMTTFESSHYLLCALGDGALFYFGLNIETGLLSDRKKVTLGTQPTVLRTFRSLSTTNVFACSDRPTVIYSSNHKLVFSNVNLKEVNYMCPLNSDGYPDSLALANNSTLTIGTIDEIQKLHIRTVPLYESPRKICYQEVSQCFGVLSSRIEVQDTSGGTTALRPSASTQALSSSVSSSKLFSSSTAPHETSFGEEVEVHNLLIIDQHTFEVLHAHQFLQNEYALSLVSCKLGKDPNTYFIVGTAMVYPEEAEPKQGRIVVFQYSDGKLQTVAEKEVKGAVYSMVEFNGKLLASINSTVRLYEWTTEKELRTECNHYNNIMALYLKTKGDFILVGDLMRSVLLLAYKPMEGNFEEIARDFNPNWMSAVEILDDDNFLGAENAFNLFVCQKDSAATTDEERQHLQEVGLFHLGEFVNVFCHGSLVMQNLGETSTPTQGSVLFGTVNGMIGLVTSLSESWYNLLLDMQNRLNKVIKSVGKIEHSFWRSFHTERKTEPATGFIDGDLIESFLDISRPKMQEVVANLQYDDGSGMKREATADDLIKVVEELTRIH
measurement description: Quantification of WIZ protein levels in HiBit tag fusion protein assay (WIZ HiBit assay in 293T cells)
Type: cell-based
cond: WIZ HiBit assay in 293T cells; 10-point, 5-fold dilution, highest concentration 25 μM, about 18 hours; read-out: WIZ AC50
readout label: DC50 (nM)

# example entries with known answers
>  <molecule>
CC(C)(C)OC(=O)N1CCC(Cc2ccc3onc(N4CCC(=O)NC4=O)c3c2)C1 (centres unmarked) [Example 47]

>  <DC50 [nM]>
397

$$$$
>  <molecule>
O=C1CCN(c2noc3ccc(CN4CCN(Cc5ccccc5)CC4)cc23)C(=O)N1 [Example 25]

>  <DC50 [nM]>
130

$$$$
>  <molecule>
O=C1CCN(c2noc3ccc(CN4CCN(C5CCC5)CC4)cc23)C(=O)N1 [Example 80]

>  <DC50 [nM]>
14

$$$$
>  <molecule>
C[C@H]1CN(Cc2ccc3onc(N4CCC(=O)NC4=O)c3c2)CCN1C1COC1 [Example 82]

>  <DC50 [nM]>
77

$$$$

(1) CN1C[C@@H]2C[C@H]1CN2Cc1ccc2onc(N3CCC(=O)NC3=O)c2c1 [Example 94]
(2) CN1CCCC(Cc2ccc3onc(N4CCC(=O)NC4=O)c3c2)C1 (centres unmarked) [Example 45]
(3) C[C@@H]1CN(S(C)(=O)=O)CCN1Cc1ccc2onc(N3CCC(=O)NC3=O)c2c1 [Example 71]
(4) CC(C)(C)OC(=O)N1CCC(Cc2ccc3onc(N4CCC(=O)NC4=O)c3c2)CC1 [Example 1a]
Your job: order these 4 records by DC50, ascending. To answer, write out the labels according to the requested order.
3, 4, 2, 1

(I) CC(C)[C@@H]1CN(C)CCN1Cc1ccc2onc(N3CCC(=O)NC3=O)c2c1 [Example 89]
(II) O=C1CCN(c2noc3ccc(CC4CCN(CC5CCC5)CC4)cc23)C(=O)N1 [Example 3]
(III) CC(C)[C@H]1CN(Cc2ccc3onc(N4CCC(=O)NC4=O)c3c2)CCN1CC1CCOCC1 [Example 38]
Your job: order these 3 records by DC50, ascending. To answer, write out the labels according to the requested order.
II, I, III

(I) O=C1CCN(c2noc3ccc(CN4CCN(C5CCOCC5)CC4)cc23)C(=O)N1 [Example 81]
(II) CC(C)S(=O)(=O)N1CCC(Cc2ccc3onc(N4CCC(=O)NC4=O)c3c2)CC1 [Example 14]
(III) O=C1CCN(c2noc3ccc(CN4CCN(Cc5cccc(F)c5)CC4)cc23)C(=O)N1 [Example 27]
Your job: order these 3 records by DC50, ascending. To answer, write out the labels according to the requested order.
II, I, III
(II: 14 nM, I: 26 nM, III: 210 nM)

---

tested system: WIZ (Homo sapiens, UniProt O95785+Q96SW2)
Construct: expressed in transfected cells
measurement description: Quantification of WIZ protein levels in HiBit tag fusion protein assay (WIZ HiBit assay in 293T cells)
Format: cell-based
cond: HEK-293T, 100 minus Amax at 25 uM; read-out: % degradation of WIZ (100-Amax)
readout label: Dmax at 25 µM (%)

>  <compound>
O=C1CCN(c2noc3ccc(CC4CCCNC4)cc23)C(=O)N1 (centres unmarked)

>  <Dmax at 25 µM [%]>
78

$$$$
>  <compound>
CS(=O)(=O)N1C[C@H]2CC[C@@H](C1)N2Cc1ccc2onc(N3CCC(=O)NC3=O)c2c1

>  <Dmax at 25 µM [%]>
85

$$$$
>  <compound>
CC[C@@H]1CN(C)CCN1Cc1ccc2onc(N3CCC(=O)NC3=O)c2c1

>  <Dmax at 25 µM [%]>
83

$$$$
>  <compound>
CC(C)(C)OC(=O)N1C[C@@H]2C[C@H]1CN2Cc1ccc2onc(N3CCC(=O)NC3=O)c2c1

>  <Dmax at 25 µM [%]>
61

$$$$
>  <compound>
CS(=O)(=O)N1CCN(Cc2ccc3onc(N4CCC(=O)NC4=O)c3c2)CC1

>  <Dmax at 25 µM [%]>
83

$$$$
>  <compound>
CC(C)CN1CCN(Cc2ccc3onc(N4CCC(=O)NC4=O)c3c2)[C@H](C)C1

>  <Dmax at 25 µM [%]>
88

$$$$
>  <compound>
O=C1CCN(c2noc3ccc(CC4CCN(Cc5ccccc5)CC4)cc23)C(=O)N1

>  <Dmax at 25 µM [%]>
91

$$$$
>  <compound>
O=C1CCN(c2noc3ccc(CC4CCCN(CC5CCCCC5)C4)cc23)C(=O)N1 (centres unmarked)

>  <Dmax at 25 µM [%]>
77

$$$$
